# credit: PubChem BioAssay AID2639

Assay summary: Platelet Aggregation Secondary Assay for Inhibitors of Platelet Integrin alphallb-beta3
Measurement parameters: platelet-rich plasma, ADP-induced aggregation, absorbance 563 nm
Active and inactive are the calls of the source. Calls come from the whole dose curve.
Please reply with one of these outcomes: 1 (yes) for active, 0 (no) for inactive

Example cases with answers are listed next.
- Smiles: "CCc1nn2c(=O)c(C)c(N3CCNCC3)nc2s1"
  Class assignment: "0 (no)"
- Smiles: "Cc1nn2c(=O)cc(N3CCNCC3)nc2s1"
  Class assignment: "0 (no)"
- Smiles: "O=c1cc(N2CCNCC2)nc2sc(C3CC3)nn12"
  Class assignment: "0 (no)"

Give the logged outcome of this assay for the following compound: `CCc1nn2c(=O)cc(N3CCNCC3)nc2s1` 1 (yes)
